# TARGET_UNDER_TEST: telomerase (Homo sapiens, UniProt O14746)
# Construct: telomeric repeats added to an oligonucleotide by telomerase in the cell extract; endogenous in cells
# Sequence (O14746 whole entry): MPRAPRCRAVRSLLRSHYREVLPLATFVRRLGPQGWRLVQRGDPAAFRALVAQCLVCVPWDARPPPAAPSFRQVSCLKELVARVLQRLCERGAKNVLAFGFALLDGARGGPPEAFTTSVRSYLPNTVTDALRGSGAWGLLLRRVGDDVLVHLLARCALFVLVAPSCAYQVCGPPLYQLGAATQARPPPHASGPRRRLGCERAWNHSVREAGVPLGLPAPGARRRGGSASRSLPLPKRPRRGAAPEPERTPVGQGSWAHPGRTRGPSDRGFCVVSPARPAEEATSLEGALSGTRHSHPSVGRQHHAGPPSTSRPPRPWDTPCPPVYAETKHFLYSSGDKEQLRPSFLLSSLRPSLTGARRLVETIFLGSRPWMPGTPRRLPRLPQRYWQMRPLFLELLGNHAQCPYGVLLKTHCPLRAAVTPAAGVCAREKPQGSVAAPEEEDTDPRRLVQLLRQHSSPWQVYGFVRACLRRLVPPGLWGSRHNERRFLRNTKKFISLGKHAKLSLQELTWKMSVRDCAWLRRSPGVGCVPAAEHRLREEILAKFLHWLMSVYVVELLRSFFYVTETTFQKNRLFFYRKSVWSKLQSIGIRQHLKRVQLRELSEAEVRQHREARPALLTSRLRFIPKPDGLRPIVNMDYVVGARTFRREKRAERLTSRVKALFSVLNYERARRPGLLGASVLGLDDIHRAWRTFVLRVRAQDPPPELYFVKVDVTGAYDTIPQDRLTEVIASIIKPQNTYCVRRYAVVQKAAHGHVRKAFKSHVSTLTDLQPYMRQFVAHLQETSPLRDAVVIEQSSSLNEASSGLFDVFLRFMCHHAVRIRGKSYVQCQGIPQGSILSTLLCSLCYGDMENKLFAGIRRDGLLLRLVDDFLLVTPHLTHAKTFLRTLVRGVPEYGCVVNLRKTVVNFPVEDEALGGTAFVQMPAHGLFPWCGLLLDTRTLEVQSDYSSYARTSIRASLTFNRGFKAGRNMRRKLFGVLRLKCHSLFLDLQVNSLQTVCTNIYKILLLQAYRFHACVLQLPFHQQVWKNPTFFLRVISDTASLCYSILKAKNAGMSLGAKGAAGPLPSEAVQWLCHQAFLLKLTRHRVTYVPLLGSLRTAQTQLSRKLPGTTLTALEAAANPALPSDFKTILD
# Sequence (O60832 whole entry partner): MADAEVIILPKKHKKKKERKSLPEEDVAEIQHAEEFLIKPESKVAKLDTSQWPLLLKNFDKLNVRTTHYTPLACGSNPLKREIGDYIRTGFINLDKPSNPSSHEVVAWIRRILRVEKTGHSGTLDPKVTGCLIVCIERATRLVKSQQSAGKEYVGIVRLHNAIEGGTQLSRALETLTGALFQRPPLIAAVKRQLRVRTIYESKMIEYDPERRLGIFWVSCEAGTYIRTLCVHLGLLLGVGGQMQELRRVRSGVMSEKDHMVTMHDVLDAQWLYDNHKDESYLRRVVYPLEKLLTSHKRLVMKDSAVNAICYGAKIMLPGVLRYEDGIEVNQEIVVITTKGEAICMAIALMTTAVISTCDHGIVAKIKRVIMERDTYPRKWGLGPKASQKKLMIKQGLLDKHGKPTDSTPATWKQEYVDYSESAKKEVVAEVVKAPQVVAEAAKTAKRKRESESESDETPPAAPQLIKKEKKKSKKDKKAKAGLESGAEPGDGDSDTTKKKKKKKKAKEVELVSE
# Sequence (Q9NPE3 whole entry partner): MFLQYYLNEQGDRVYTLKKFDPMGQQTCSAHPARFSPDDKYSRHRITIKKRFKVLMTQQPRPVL
# Sequence (Q9NX24 whole entry partner): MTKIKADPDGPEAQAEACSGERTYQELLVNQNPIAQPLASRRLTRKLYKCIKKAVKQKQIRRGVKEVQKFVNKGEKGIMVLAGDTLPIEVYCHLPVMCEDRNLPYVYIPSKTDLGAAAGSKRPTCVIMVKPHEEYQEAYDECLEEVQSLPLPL
# Sequence (Q9NY12 whole entry partner): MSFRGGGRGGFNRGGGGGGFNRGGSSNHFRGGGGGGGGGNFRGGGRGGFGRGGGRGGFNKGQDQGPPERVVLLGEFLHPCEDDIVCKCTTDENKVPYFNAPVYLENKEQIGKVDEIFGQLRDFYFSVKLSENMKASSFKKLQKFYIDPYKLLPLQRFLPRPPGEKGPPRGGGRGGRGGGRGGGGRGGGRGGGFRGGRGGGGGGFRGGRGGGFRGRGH
# Sequence (Q9BUR4 whole entry partner): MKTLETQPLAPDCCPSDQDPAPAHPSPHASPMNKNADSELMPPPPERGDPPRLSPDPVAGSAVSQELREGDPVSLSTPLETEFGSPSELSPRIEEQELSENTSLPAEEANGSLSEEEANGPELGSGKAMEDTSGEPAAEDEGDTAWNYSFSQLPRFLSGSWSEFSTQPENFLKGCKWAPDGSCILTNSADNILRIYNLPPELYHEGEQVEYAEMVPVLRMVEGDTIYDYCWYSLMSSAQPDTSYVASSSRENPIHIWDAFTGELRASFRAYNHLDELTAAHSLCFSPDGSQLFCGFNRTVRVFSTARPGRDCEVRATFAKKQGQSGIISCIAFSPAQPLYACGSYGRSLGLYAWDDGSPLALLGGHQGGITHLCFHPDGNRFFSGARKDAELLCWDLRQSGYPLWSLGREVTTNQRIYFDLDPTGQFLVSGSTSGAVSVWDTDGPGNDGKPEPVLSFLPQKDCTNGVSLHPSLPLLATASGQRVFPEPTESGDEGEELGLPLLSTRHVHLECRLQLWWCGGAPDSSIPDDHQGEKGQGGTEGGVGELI
# TEST: Inhibition of telomerase activity by TRAP-assay (telomeric repeat amplification, extracts of cervical carcinoma cell lines SiHa, C33A, CaSki, HeLa)
# TEST_PARAMETERS: concentration at which inhibition of telomerase activity is 50%
READOUT: pIC50
The value called pIC50 is obtained by taking minus log10 of the concentration in mol/L.

q: Find the measured pIC50 of C=CCN1C(=O)/C(=C/c2ccccn2)N=C1SCCSC1=N/C(=C\c2ccccn2)C(=O)N1CC=C and report it.
a: 5.70
